System: EKVX
measurement notes: NCI tumour cell line growth inhibition, 48 h
Activity calls are given as the source filed them. No stated cut-off is given here; in the data, active = GI50 up to about 1.1 µM and inactive = higher.
Answer each item with its documented GI50.

Qu. If you can, please state the reported GI50 value of "CC[C@H](CCCC[C@H]1CC[C@@H]2CC(=O)C[C@H]12)OC" .
Ans. 60.1 µM (inactive)

Qu. If you can, please state the reported GI50 value of C=C(CCC(C)C1CCC2C3=C(C(=O)CC21C)C1(C)CCC(=O)[C@@H](C)C1CC3=O)C(C)C(=O)O (some centres undefined) .
Ans. 78.7 µM (inactive)

Qu. If you can, please state the reported GI50 value of "CN(C)CCn1c(=O)c2ccc(NCCNCCO)c3c(=O)c4cc(O)ccc4n(c1=O)c23" .
Ans. 2.58 µM (inactive)

Qu. If you can, please state the reported GI50 value of O=C1c2c(O)cc(O)cc2C(C2OC(CO)C(O)C(O)C2O)c2cc(CO)cc(O)c21 (centres undefined) .
Ans. > 100 µM (inactive)

Qu. If you can, please state the reported GI50 value of "COc1cccc2c1cc([N+](=O)[O-])c1c(C(=O)O)cc3c(c12)OCO3" .
Ans. 43.4 µM (inactive)

Qu. If you can, please state the reported GI50 value of C=C(CCOC)CCC1CCCCC(=C)[C@H]1O (some centres undefined) .
Ans. > 100 µM (inactive)

Qu. If you can, please state the reported GI50 value of "Cc1cn(CC2(CO)CCC2)c(=O)[nH]c1=O" .
Ans. > 100 µM (inactive)

Qu. If you can, please state the reported GI50 value of "Cc1nc(N(C(C)C)C(C)C)c(C(C)C)o1" .
Ans. > 100 µM (inactive)

Qu. If you can, please state the reported GI50 value of O=C1NC2(CCCCC2)N=C2C(Cl)CCCC12Cl (centres undefined) .
Ans. > 100 µM (inactive)

---

System: MDA-N
measurement notes: NCI tumour cell line growth inhibition, 48 h
Calls of active or inactive are those of the source. No stated cut-off is given here; in the data, active = GI50 up to about 1.1 µM and inactive = higher. Where a SMILES comes first, the peptide text is derived from it. [ ]: non-standard residue; d: D form. Ac5c = NC1(C(=O)O)CCCC1
API: response.call in active, inactive

Qu. Any idea what this test logged for "CCOC(=O)[C@H](C)OC(=O)[C@@](C)(NC(=O)c1ccccc1C(=O)OC)[C@@H]1NC=C(C(=O)OC)CS1" ?
Ans. inactive

Qu. Any idea what this test logged for O=Cc1ccc2c(c1)CC1(C2)Cc2ccc3c(c2C1)CCC3 (stereo unspecified) ?
Ans. inactive

Qu. Any idea what this test logged for "CCSC1=C(C#N)C2(CCCCC2)C2=C(O)CC(C)(C)CC2=N1" ?
Ans. inactive

Qu. Any idea what this test logged for Cn1c(C(C#N)c2nc(Cl)ncc2Br)nc2ccccc21 (stereo unspecified) ?
Ans. inactive

Qu. Any idea what this test logged for CC(=O)NC1C(OCC(=O)NCCNc2ccc([N+](=O)[O-])c3[nH]c4ccccc4c(=O)c23)C(O)C(CO)OC1(C)OCc1ccccc1 (stereo unspecified) ?
Ans. inactive

Qu. Any idea what this test logged for CCN1CN(c2ccccc2)C2(CCN(CC(CC3OCCO3)c3ccc(F)cc3)CC2)C1=O (stereo unspecified) ?
Ans. inactive

Qu. Any idea what this test logged for "CC(=O)OC(=C(C#N)C#N)c1nccnc1C(=O)O" ?
Ans. inactive

Qu. Any idea what this test logged for C=C(CCOC)CCC1CCCCC(=C)[C@H]1O (stereo partly specified) ?
Ans. inactive

Qu. Any idea what this test logged for COC(=O)C1(NC(=O)C(C)NC(=O)C(CCCCN)NC(=O)C(CC(C)C)NC(C)=O)CCCC1 (stereo unspecified) (Ac-LKA[Ac5c]-OMe; configuration not given here) ?
Ans. inactive

Qu. Any idea what this test logged for "O=c1[nH]c2nc3ccccc3c(=O)n2/c1=C/c1ccc(Cl)cc1" ?
Ans. inactive

Qu. Any idea what this test logged for "CC1=C(N2CC2)C(=O)C(C)=C(N2CC2)C1=O" ?
Ans. active
